Exercise: state measured log10(IC50) for each of the compounds provided.
biological target: P2X7 receptor (Homo sapiens (Human), UniProt Q99572); experiment: YO-PRO-1 Uptake Assay (large pore form, Bz-ATP stimulated); type: cell-based; details: HEK-293 cells stably transfected with P2X7 receptor; Bz-ATP EC80 (30 μM); 5 μM YO-PRO-1
Could you please treat all values as log10 of IC50 in nM?

INPUT: Record request: log10(IC50) value, item COc1cccc(C(=O)NCC(c2ocnc2C)N2CCc3ccccc3C2)c1OC (centres unmarked) [Compound 56]
OUTPUT: 2.62

INPUT: Record request: log10(IC50) value, item Cc1ncc(C(CNC(=O)c2cc(-c3ncc(F)cn3)ccc2Cl)N2CCC(F)(F)CC2)s1 (single isomer, unassigned; (-)) [Compound 128]
OUTPUT: 1.38

INPUT: Record request: log10(IC50) value, item Cc1cccc(Cl)c1C(=O)NCC(c1cncs1)N1CCOCC1 (centres unmarked) [Compound 13]
OUTPUT: 2.43

INPUT: Record request: log10(IC50) value, item Cc1cccc(C)c1C(=O)NCC(c1cncs1)N1CCOCC1 (centres unmarked) [Compound 11]
OUTPUT: 2.34

INPUT: Record request: log10(IC50) value, item Cc1ncsc1C(CNC(=O)c1c(F)cccc1Cl)N1CCc2ccccc2C1 (centres unmarked) [Compound 29]
OUTPUT: 1.95

INPUT: Record request: log10(IC50) value, item Cc1ncc(C(CNC(=O)c2cc(-c3ncc(F)cn3)ccc2Cl)N2CCC(F)(F)CC2)s1 (racemic) [Compound 61]
OUTPUT: 2.09

INPUT: Record request: log10(IC50) value, item Cc1cccc(-c2ccc(Cl)c(C(=O)NCC(c3scnc3C)N3CCC(F)(F)CC3)c2)n1 (centres unmarked) [Compound 74]
OUTPUT: 1.94

INPUT: Record request: log10(IC50) value, item Cc1cccc(Cl)c1C(=O)NCC(c1scnc1C)N1CCOC(c2ccc(F)cc2F)C1 (centres unmarked) [Compound 100]
OUTPUT: 1.86

INPUT: Record request: log10(IC50) value, item O=C(NCC(c1scnc1C(F)(F)F)N1CCC(F)(F)CC1)c1cc(-c2ncc(F)cn2)ccc1Cl (centres unmarked) [Compound 68]
OUTPUT: 2.26

INPUT: Record request: log10(IC50) value, item Cc1ncsc1C(CNC(=O)c1cc(-c2ncc(F)cn2)ccc1Cl)N1CCOC2(CCC2)C1 (centres unmarked) [Compound 93]
OUTPUT: 1.91

INPUT: Record request: log10(IC50) value, item O=C(NCC(c1cscn1)N1CCCOCC1)c1c(F)cccc1Cl (centres unmarked) [Compound 7]
OUTPUT: 3.23

INPUT: Record request: log10(IC50) value, item O=C(NCC(c1cscn1)N1CCc2ccccc2C1)c1c(F)cccc1Cl (centres unmarked) [Compound 6]
OUTPUT: 3.10

INPUT: Record request: log10(IC50) value, item O=C(NCC(c1cnc(C2CCC2)s1)N1CCC(F)(F)CC1)c1cc(-c2ncc(F)cn2)ccc1F (centres unmarked) [Compound 106]
OUTPUT: 2.91

INPUT: Record request: log10(IC50) value, item O=C(NCC(c1cnco1)N1CCC(OCc2ccccc2)CC1)c1c(F)cccc1Cl (centres unmarked) [Compound 63]
OUTPUT: 2.20

INPUT: Record request: log10(IC50) value, item Cc1ncsc1C(CNC(=O)c1cccc2ncccc12)N1CCC(F)(F)CC1 (centres unmarked) [Compound 33]
OUTPUT: 2.25

INPUT: Record request: log10(IC50) value, item Cc1cccc(C)c1C(=O)NCC(c1cncs1)N1CCC(F)(F)CC1 (centres unmarked) [Compound 14]
OUTPUT: 1.38

INPUT: Record request: log10(IC50) value, item Cc1ncsc1C(CNC(=O)c1cc(-c2ncc(F)cn2)ccc1F)N1CCC(F)(F)CC1 (centres unmarked) [Compound 70]
OUTPUT: 2.26

---

target: P2X7 receptor (hP2X7) (Homo sapiens (Human), UniProt Q99572); test: Screen Quest Fluo-8 No Wash Calcium Assay (Bz-ATP-induced Ca2+ influx, FLIPR TETRA); type: cell-based; conditions: HEK-293 cells stably transfected with P2X7 receptor, Fluo-8 calcium, Low Divalent Cation Assay Buffer
Sequence (Q99572 whole entry): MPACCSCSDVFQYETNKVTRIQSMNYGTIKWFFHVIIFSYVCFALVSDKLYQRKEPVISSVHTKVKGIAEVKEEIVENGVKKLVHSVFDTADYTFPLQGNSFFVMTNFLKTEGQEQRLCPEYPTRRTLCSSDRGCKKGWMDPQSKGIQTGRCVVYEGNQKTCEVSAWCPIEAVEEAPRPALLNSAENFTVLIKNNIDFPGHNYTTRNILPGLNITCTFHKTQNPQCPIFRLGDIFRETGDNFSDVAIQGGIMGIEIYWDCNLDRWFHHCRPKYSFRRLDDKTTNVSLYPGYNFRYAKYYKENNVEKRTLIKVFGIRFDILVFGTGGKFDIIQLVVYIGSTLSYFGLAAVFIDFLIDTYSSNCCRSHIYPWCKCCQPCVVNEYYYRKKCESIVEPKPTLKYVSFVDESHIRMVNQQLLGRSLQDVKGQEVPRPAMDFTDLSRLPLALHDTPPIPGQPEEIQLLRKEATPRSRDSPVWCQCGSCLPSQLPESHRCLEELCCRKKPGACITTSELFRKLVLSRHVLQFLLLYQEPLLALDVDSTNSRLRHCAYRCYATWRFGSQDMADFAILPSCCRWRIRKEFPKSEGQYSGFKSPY
Exercise: state measured log10(IC50) for each of the molecules provided.
Could you please treat all values as log10 of IC50 in nM?

INPUT: Record request: log10(IC50) value, item COc1cccc(C(=O)NCC(c2ocnc2C)N2CCC(F)(F)CC2)c1OC (centres unmarked)
OUTPUT: 3.70

INPUT: Record request: log10(IC50) value, item Cc1ncsc1C(CNC(=O)c1cc(-c2ncc(F)cn2)ccc1Cl)N1CCOC2(CCC2)C1 (centres unmarked)
OUTPUT: 2.06

INPUT: Record request: log10(IC50) value, item Cc1ncsc1C(CNC(=O)c1cc(-c2ncc(F)cn2)ccc1F)N1CCC(F)(F)CC1 (centres unmarked)
OUTPUT: 1.51

INPUT: Record request: log10(IC50) value, item Cc1ncc(C(CNC(=O)c2c(C)cccc2C)N2CCC(F)(F)CC2)s1 (centres unmarked)
OUTPUT: 1.48

INPUT: Record request: log10(IC50) value, item Cc1ncsc1C(CNC(=O)c1ccc(N2CCCS2(=O)=O)cc1Cl)N1CCC(F)(F)CC1 (centres unmarked)
OUTPUT: 2.56

INPUT: Record request: log10(IC50) value, item CCc1ncc(C(CNC(=O)c2c(F)cccc2Cl)N2CCC(F)(F)CC2)s1 (centres unmarked)
OUTPUT: 1.79

INPUT: Record request: log10(IC50) value, item O=C(NCC(c1cnc(C2CCC(F)(F)CC2)s1)N1CCOCC1)c1cc(-c2ncc(F)cn2)ccc1Cl (centres unmarked)
OUTPUT: 2.53

INPUT: Record request: log10(IC50) value, item Cc1ncc(C(CNC(=O)c2c(C)cccc2Cl)N2CCc3ccccc3C2)s1 (centres unmarked)
OUTPUT: 2.93

---

molecular target: P2X7 receptor (hP2X7) (Homo sapiens (Human), UniProt Q99572); assay: Screen Quest Fluo-8 No Wash Calcium Assay (Bz-ATP-induced Ca2+ influx, FLIPR TETRA); assay type: cell-based; conditions: HEK-293 cells stably transfected with P2X7 receptor, Fluo-8 calcium, Low Divalent Cation Assay Buffer
Criterion: IC50 strictly less than 100 nM. Met: t. Not met: f.

INPUT: Bench note: check whether O=C(NCC(c1scnc1C(F)F)N1CCC(F)(F)CC1)c1c(F)cccc1Cl (stereo not drawn) shows IC50 below 100 nM
OUTPUT: t

INPUT: Bench note: check whether Cc1ncc(C(CNC(=O)c2cc(-c3ncc(F)cn3)ccc2Cl)N2CCC(F)(F)CC2)s1 (single isomer, unassigned; (+)) [Compound 127] shows IC50 below 100 nM
OUTPUT: t

INPUT: Bench note: check whether O=C(NCC(c1scnc1C(F)F)N1CCC(F)(F)CC1)c1cc(-c2ncc(F)cn2)ccc1Cl (stereo not drawn) shows IC50 below 100 nM
OUTPUT: t

INPUT: Bench note: check whether O=C(NCC(c1cnc(C2CCC(F)(F)CC2)s1)N1CCC(F)(F)CC1)c1cc(-c2ncc(F)cn2)ccc1Cl (stereo not drawn) shows IC50 below 100 nM
OUTPUT: f

INPUT: Bench note: check whether Cc1cccc(C)c1C(=O)NCC(c1scnc1C)N1CCc2ccccc2C1 (stereo not drawn) shows IC50 below 100 nM
OUTPUT: t

INPUT: Bench note: check whether Cc1ncsc1C(CNC(=O)c1c(F)cccc1Cl)N1CCC(Oc2ccccc2)CC1 (stereo not drawn) shows IC50 below 100 nM
OUTPUT: f

INPUT: Bench note: check whether Cc1ncsc1C(CNC(=O)c1c(F)cccc1Cl)N1CCOCC1 (stereo not drawn) shows IC50 below 100 nM
OUTPUT: f

INPUT: Bench note: check whether O=C(NCC(c1nccs1)N1CCC(F)(F)CC1)c1c(F)cccc1Cl (stereo not drawn) shows IC50 below 100 nM
OUTPUT: f

INPUT: Bench note: check whether Cc1cccc(Cl)c1C(=O)NCC(c1cncs1)N1CCC(F)(F)CC1 (stereo not drawn) shows IC50 below 100 nM
OUTPUT: t

INPUT: Bench note: check whether CC(C)(C)c1ncc(C(CNC(=O)c2cccc3ncccc23)N2CCC(F)(F)CC2)s1 (stereo not drawn) shows IC50 below 100 nM
OUTPUT: f

INPUT: Bench note: check whether Cc1ncsc1C(CNC(=O)c1cc(-c2cnccn2)ccc1Cl)N1CCC(F)(F)CC1 (stereo not drawn) shows IC50 below 100 nM
OUTPUT: t

INPUT: Bench note: check whether O=C(NCC(c1cnc(C2CC2)s1)N1CCC(F)(F)CC1)c1cc(-c2ncc(F)cn2)ccc1Cl (stereo not drawn) shows IC50 below 100 nM
OUTPUT: f

INPUT: Bench note: check whether Cc1cccc(Cl)c1C(=O)NCC(c1cncs1)N1CCC(OCc2ccccc2)CC1 (stereo not drawn) shows IC50 below 100 nM
OUTPUT: f

INPUT: Bench note: check whether Cc1ncoc1C(CNC(=O)c1ccc(-c2ncc(F)cn2)cc1Cl)N1CCc2ccccc2C1 (stereo not drawn) shows IC50 below 100 nM
OUTPUT: f

INPUT: Bench note: check whether Cc1ncsc1C(CNC(=O)c1c(F)cccc1Cl)N1CCCC(F)(F)C1 (stereo not drawn) shows IC50 below 100 nM
OUTPUT: f

INPUT: Bench note: check whether CC(C)(C)c1ncc(C(CNC(=O)c2c(F)cccc2Cl)N2CCC(F)(F)CC2)s1 (stereo not drawn) shows IC50 below 100 nM
OUTPUT: f

INPUT: Bench note: check whether Cc1cccc(C)c1C(=O)NCC(c1cncs1)N1CCC(Oc2ccccc2)CC1 (stereo not drawn) shows IC50 below 100 nM
OUTPUT: f

INPUT: Bench note: check whether Cc1ncsc1C(CNC(=O)c1cc(-c2ncc(F)cn2)ccc1Cl)N1CC(F)(F)C1 (stereo not drawn) shows IC50 below 100 nM
OUTPUT: t

INPUT: Bench note: check whether COc1cccc(C(=O)NCC(c2cncs2)N2CCC(F)(F)CC2)c1OC (stereo not drawn) shows IC50 below 100 nM
OUTPUT: t

INPUT: Bench note: check whether Cc1cccc(C)c1C(=O)NCC(c1cncs1)N1CCC(OCc2ccccc2)CC1 (stereo not drawn) shows IC50 below 100 nM
OUTPUT: f

INPUT: Bench note: check whether O=C(NCC(c1cnc(C(F)(F)F)s1)N1CCC(F)(F)CC1)c1cc(-c2ncc(F)cn2)ccc1Cl (stereo not drawn) shows IC50 below 100 nM
OUTPUT: f

INPUT: Bench note: check whether O=C(NCC(c1scnc1C1CC1)N1CCC(F)(F)CC1)c1cc(-c2ncc(F)cn2)ccc1Cl (stereo not drawn) shows IC50 below 100 nM
OUTPUT: f

INPUT: Bench note: check whether O=C(NCC(c1scnc1C1CC1)N1CCC(F)(F)CC1)c1cccc2ncccc12 (stereo not drawn) shows IC50 below 100 nM
OUTPUT: f

INPUT: Bench note: check whether Cc1ncsc1C(CNC(=O)c1c(F)cccc1Cl)N1CCC(OCc2ccccc2)CC1 (stereo not drawn) shows IC50 below 100 nM
OUTPUT: f

INPUT: Bench note: check whether O=C(NCC(c1scnc1C(F)(F)F)N1CCC(F)(F)CC1)c1c(F)cccc1Cl (stereo not drawn) shows IC50 below 100 nM
OUTPUT: f

INPUT: Bench note: check whether Cc1cccc(C)c1C(=O)NCC(c1cncs1)N1CCc2ccccc2C1 (stereo not drawn) shows IC50 below 100 nM
OUTPUT: t

INPUT: Bench note: check whether Cc1ncsc1C(CNC(=O)c1c(F)cccc1Cl)N1CCC(F)(F)CC1 (stereo not drawn) shows IC50 below 100 nM
OUTPUT: t

INPUT: Bench note: check whether Cc1cccc(C)c1C(=O)NCC(c1scnc1C)N1CCOCC1 (stereo not drawn) shows IC50 below 100 nM
OUTPUT: f

INPUT: Bench note: check whether Nc1ccc(Cl)c(C(=O)NCC(c2cncs2)N2CCC(F)(F)CC2)c1 (stereo not drawn) shows IC50 below 100 nM
OUTPUT: t

INPUT: Bench note: check whether Cc1ncc(C(CNC(=O)c2cc(-c3cnccn3)ccc2Cl)N2CCC(F)(F)CC2)s1 (stereo not drawn) shows IC50 below 100 nM
OUTPUT: f

INPUT: Bench note: check whether Cc1cccc(C)c1C(=O)NCC(c1cnco1)N1CCc2ccccc2C1 (stereo not drawn) shows IC50 below 100 nM
OUTPUT: f

INPUT: Bench note: check whether CCCc1ncc(C(CNC(=O)c2c(F)cccc2Cl)N2CCC(F)(F)CC2)s1 (stereo not drawn) shows IC50 below 100 nM
OUTPUT: t

Where these numbers come from: patent US9718812B2
